Tested on: E. faecium ATCC 19434
test_name: MIC, CLSI broth microdilution (Table 1)
Format: cell-based
condition_set: Enterococcus faecium, ATCC19434; Gram positive; MHB, 37° C., 16-20 hours; read-out: MIC E. faecium ATCC 19434
Counter-ions that a name gives are not always drawn.
recorded_endpoint: log10 of MIC (log10 of the value in µg/mL)

molecule | log10 of MIC
Cc1c(-c2ccc(F)c(N)c2)ccn2c(=O)c(C(=O)O)cc(C3CC3)c12 [Example 8 K salt] | -0.30
Cc1c(-c2cc(Cl)c(N)c(Cl)c2)ccn2c(=O)c(C(=O)O)cc(C3CC3)c12 [Example 29 K salt] | -0.30
Cc1c(-c2ccc3[nH]ccc3c2)ccn2c(=O)c(C(=O)O)cc(C3CC3)c12 [Example 22 K salt] | 0.60
Cc1c(-c2ccc(NS(C)(=O)=O)cc2)ccn2c(=O)c(C(=O)O)cc(C3CC3)c12 [Example 14 K salt] | 0.90
COc1ccc(-c2ccn3c(=O)c(C(=O)O)cc(C4CC4)c3c2C)cc1 [Example 47 K salt] | 0.00
Cc1c(N2CC[C@H](N)C2)c(F)cn2c(=O)c(C(=O)O)cc(C3CC3)c12 [Example 26 K salt] | 0.00
Cc1c(-c2cc(N)cc(F)c2)ccn2c(=O)c(C(=O)O)cc(C3CC3)c12 [Example 9 K salt] | -0.30
Cc1c(-c2ccnc(F)c2)ccn2c(=O)c(C(=O)O)cc(C3CC3)c12 [Example 20 K salt] | 0.00
Cc1c(-c2ccc(NC(N)=O)cc2)ccn2c(=O)c(C(=O)O)cc(C3CC3)c12 [Example 24 K salt] | -0.30
Cc1c(N2CCC[C@H](N)C2)ccn2c(=O)c(C(=O)O)cc(C3CC3)c12 [Example 35 K salt] | 0.30
CC(=O)Nc1ccc(-c2ccn3c(=O)c(C(=O)O)cc(C4CC4)c3c2C)cc1 [Example 13 K salt] | -0.30
Cc1c(-c2ccc(CO)cc2)ccn2c(=O)c(C(=O)O)cc(C3CC3)c12 [Example 48 K salt] | 0.00
Cc1c(-c2ccc(C#N)c(F)c2)ccn2c(=O)c(C(=O)O)cc(C3CC3)c12 [Example 40 K salt] | 0.30
Cc1c(-c2cccc(N)c2)ccn2c(=O)c(C(=O)O)cc(C3CC3)c12 [Example 3 K salt] | 0.00
Cc1c(-c2ccc(C(N)=O)cc2)ccn2c(=O)c(C(=O)O)cc(C3CC3)c12 [Example 36 K salt] | -0.30
